Tested on: IL-2 secretion by human effector memory T cells (TEM)
test name: Effector memory T cells IL-2 release assay
Assay type: cell-based
study conditions: T-cell; human CD4+ TEM cells, CD3/CD28 bead stimulation, 24 h; binned A to G; read-out: PKC-theta IL2 pIC50 (binned) (converted)
Each record here notes measured IC50.

> print(dat)
                                   molecule          result
1  CCC1(C)C(=O)Nc2nccc(-c3nn([C@@H]4CCNC[C@@H]4F)c4ccccc34)c21 (stereo partly shown) [Example 52]  31.6 to 100 nM
2  CC[C@]1(O)C(=O)Nc2nccc(-c3nn([C@@H]4CCNC[C@@H]4F)c4ccccc34)c21 (single isomer, unassigned) [Example 85]       > 1000 nM
3  CC1(C)C(=O)Nc2nccc(-c3nn([C@H]4CCNC[C@@H]4F)c4ccccc34)c21 (racemic) [Example 36]   100 to 316 nM

QUERY: Name the recorded IC50 for CC1(C)C(=O)Nc2nccc(-c3nn(C4(CF)CCNC4)c4ccccc34)c21 (stereo not shown) [Example 77] .
RESULT: 10 to 31.6 nM

* * *

target of assay: Recombinant human PKC-theta (His-tagged 362-706) (Homo sapiens (Human))
test name: PKC-theta inhibition assay (HTRF KinEASE kit)
Type: biochemical
study conditions: ATP 6.5 μM, binned A to H, read-out: PKC-theta HTRF pIC50 (binned) (converted)
Structures can show the parent of a compound that is named as a salt.
Each record here notes measured IC50.

> print(dat)
                                    compound         result
 1  CC[C@@]1(O)C(=O)Nc2nccc(-c3nn(C4(CC#N)CCC4)c4ccccc34)c21 (single isomer, unassigned) [Example 68]         ≤ 1 nM
 2  CC1(O)C(=O)Nc2nccc(-c3cn(C4CCNCC4)c4ccccc34)c21 (stereo not shown) [Example 12]  3.16 to 10 nM
 3  CC[C@]1(OC)C(=O)Nc2nccc(-c3nn(CC4(F)CCNCC4)c4ccccc34)c21 (single isomer, unassigned) [Example 89]   1 to 3.16 nM
 4  CO[C@@]1(C)C(=O)Nc2nccc(-c3nn(CC4(F)CCNCC4)c4ccccc34)c21 (single isomer, unassigned) [Example 78]         ≤ 1 nM
 5  CC[C@@]1(O)C(=O)Nc2nccc(-c3nn([C@@H]4CCNC[C@@H]4F)c4ccccc34)c21 (single isomer, unassigned) [Example 83]   1 to 3.16 nM
 6  CC1(C)C(=O)Nc2nccc(-c3ccn([C@H]4CC[C@H](N)CC4)n3)c21 [Example 14]  3.16 to 10 nM
 7  CO[C@]1(C)C(=O)Nc2nccc(-c3nn([C@@H]4CCNC[C@@H]4F)c4ccccc34)c21 (single isomer, unassigned) [Example 90]         ≤ 1 nM
 8  CC1(C)C(=O)Nc2nccc(-c3nn(CC4CCNCC4)c4ccccc34)c21 [Example 30]   1 to 3.16 nM
 9  CC1(O)C(=O)Nc2nccc(-c3nn(C4(CC#N)CCC4)c4ccccc34)c21 (stereo not shown) [Example 25]         ≤ 1 nM
10  O=c1[nH]c2nccc(-c3ccn(C4CCNCC4)c3)c2[nH]1 [Example 3, Dihydrochloride]  100 to 316 nM

QUERY: Name the recorded IC50 for CO[C@]1(C)C(=O)Nc2nccc(-c3nn(CC4(F)CCNCC4)c4cc(F)ccc34)c21 (single isomer, unassigned) [Example 76] .
RESULT: 1 to 3.16 nM

QUERY: Please do the same for CC1(O)C(=O)Nc2nccc(-c3cn([C@H]4CCNC4)c4ccccc34)c21 (stereo partly shown) [Example 18] as well.
RESULT: 10 to 31.6 nM

QUERY: Please do the same for CC1(C)C(=O)Nc2nccc(-c3nn(C4(CC#N)CNC4)c4ccccc34)c21 [Example 46] as well.
RESULT: 3.16 to 10 nM

QUERY: Please do the same for C[C@@]1(O)C(=O)Nc2nccc(-c3nn(C4CCNCC4)c4c(OC(F)F)cccc34)c21 (single isomer, unassigned) [Example 43] as well.
RESULT: 3.16 to 10 nM

* * *

Each record here notes measured IC50.
Tested on: IL-2 secretion by human effector memory T cells (TEM)
test name: Effector memory T cells IL-2 release assay
Assay type: cell-based
study conditions: T-cell; human CD4+ TEM cells, CD3/CD28 bead stimulation, 24 h; binned A to G; read-out: PKC-theta IL2 pIC50 (binned) (converted)

> print(dat)
                                   molecule  measured.parameter          result
1  C[C@@]1(O)C(=O)Nc2nccc(-c3nn(C4CCNCC4)c4c(OC(F)F)cccc34)c21 (single isomer, unassigned) [Example 43]                IC50  316 to 1000 nM
2  O=c1[nH]c2nccc(-c3cnn(C4CCNCC4)c3)c2[nH]1 [Example 1]                IC50       > 1000 nM
3  CC1(C)C(=O)Nc2nccc(-c3nn(CC4(F)CCCNC4)c4ccccc34)c21 (centres unmarked) [Example 44]                IC50   100 to 316 nM
4  CC1(O)C(=O)Nc2nccc(-c3ccn(C4CCNCC4)c3)c21 (centres unmarked) [Example 11]                IC50       > 1000 nM
5  CO[C@]1(C)C(=O)Nc2nccc(-c3nn(CC4(F)CCNCC4)c4cc(F)ccc34)c21 (single isomer, unassigned) [Example 76]                IC50  31.6 to 100 nM
6  CC[C@@]1(C)C(=O)Nc2nccc(-c3nn([C@H]4CCNC[C@H]4F)c4ccccc34)c21 (single isomer, unassigned) [Example 107]                IC50  316 to 1000 nM

QUERY: Name the recorded IC50 for CC1(C)C(=O)Nc2nccc(-c3nn(CC4(F)CCNCC4)c4ccccc34)c21 [Example 38] .
RESULT: 10 to 31.6 nM

QUERY: Please do the same for CC1(C)C(=O)Nc2nccc(-c3cn(C4CCNC4)c4ccccc34)c21 (centres unmarked) [Example 10] as well.
RESULT: 316 to 1000 nM

QUERY: Please do the same for CO[C@]1(C)C(=O)Nc2nccc(-c3nn(CC4(F)CCNCC4)c4ccccc34)c21 (single isomer, unassigned) [Example 75] as well.
RESULT: 31.6 to 100 nM

QUERY: Please do the same for CC[C@@]1(C)C(=O)Nc2nccc(-c3nn([C@H]4CCNC[C@H]4F)c4cc(F)ccc34)c21 (single isomer, unassigned) [Example 104] as well.
RESULT: 10 to 31.6 nM

QUERY: Please do the same for CO[C@@]1(C)C(=O)Nc2nccc(-c3nn(CC4(F)CCNCC4)c4ccccc34)c21 (single isomer, unassigned) [Example 78] as well.
RESULT: 31.6 to 100 nM

QUERY: Please do the same for CC1(C)C(=O)Nc2nccc(-c3nn([C@@H]4CCNC[C@@H]4F)c4ccccc34)c21 [Example 37] as well.
RESULT: 10 to 31.6 nM

QUERY: Please do the same for CC[C@@]1(OC)C(=O)Nc2nccc(-c3nn(CC4(F)CCNCC4)c4ccccc34)c21 (single isomer, unassigned) [Example 88] as well.
RESULT: 100 to 316 nM

QUERY: Please do the same for CC[C@]1(C)C(=O)Nc2nccc(-c3nn([C@@H]4CCNC[C@@H]4F)c4ccccc34)c21 (single isomer, unassigned) [Example 106] as well.
RESULT: 10 to 31.6 nM

* * *

Each record here notes measured IC50.
target of assay: Recombinant human PKC-theta (His-tagged 362-706) (Homo sapiens (Human), UniProt Q04759)
Sequence (Q04759 362-706): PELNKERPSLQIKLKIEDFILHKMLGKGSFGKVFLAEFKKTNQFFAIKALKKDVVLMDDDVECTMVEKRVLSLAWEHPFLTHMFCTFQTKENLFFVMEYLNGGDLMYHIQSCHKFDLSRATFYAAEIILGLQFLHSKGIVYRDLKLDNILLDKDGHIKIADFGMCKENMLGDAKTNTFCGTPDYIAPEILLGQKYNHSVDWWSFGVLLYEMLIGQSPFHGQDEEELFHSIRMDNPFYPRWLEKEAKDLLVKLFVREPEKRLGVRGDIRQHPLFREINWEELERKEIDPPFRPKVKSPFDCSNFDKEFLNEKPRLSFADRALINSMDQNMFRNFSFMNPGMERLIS
test name: PKC-theta inhibition assay (HTRF KinEASE kit)
Type: biochemical
study conditions: ATP 6.5 μM, binned A to H, read-out: PKC-theta HTRF pIC50 (binned) (converted)
Method: PKC-theta and PKC-delta biochemical activities were measured using the PKC-theta HTRF KinEASEkit kit, according to manufacturer's instructions (Cisbio, catalogue number 61ST1PEJ). […] Fluorescence was measured on an Envision 2103 plate reader with optical setup for […] in the HTRF mode. The ratio of acceptor and donor emission signals was calculated for each well. […]

Previously resolved entries follow.
> print(dat)
                                   compound          result
1  CC[C@@]1(C)C(=O)Nc2nccc(-c3nn([C@H]4CCNC[C@H]4F)c4ccc(F)cc34)c21 (single isomer, unassigned)  31.6 to 100 nM
2  CC[C@]1(O)C(=O)Nc2nccc(-c3nn(C4(CC#N)CCC4)c4ccccc34)c21 (single isomer, unassigned)  31.6 to 100 nM
3  CC1(C)C(=O)Nc2nccc(-c3nn(C[C@]4(C)COCCN4)c4cc(F)ccc34)c21   10 to 31.6 nM
4  CC[C@@]1(C)C(=O)Nc2nccc(-c3nn([C@H]4CCNC[C@H]4F)c4cc(F)ccc34)c21 (single isomer, unassigned)          ≤ 1 nM
5  CC1(C)C(=O)Nc2nccc(-c3nn([C@H]4CCNC4)c4cc(F)ccc34)c21   3.16 to 10 nM

QUERY: Name the recorded IC50 for CNC1(C)C(=O)Nc2nccc(-c3nn(C4(CC#N)CCC4)c4ccccc34)c21 (stereo not shown) .
RESULT: ≤ 1 nM

QUERY: Please do the same for C[C@@]1(O)C(=O)Nc2nccc(-c3nn(C4CCNCC4)c4ccccc34)c21 (single isomer, unassigned) as well.
RESULT: 31.6 to 100 nM
